target: LIMK2KD (Homo sapiens, UniProt P53671); construct: The cDNA coding for LIMK2 residues 330 to 632 was PCR amplified; His6 (N, cleaved yes); made in house; host or cells: baculovirus; Sf9 for virus, TriEx insect cells for expression; assay: Differential (dynamic) scanning fluorimetry (DSF) assay, LIMK2KD; format: binding; conditions: LIMK2KD, compound 10 µM, single shot; read-out: TM Shift LIMK2 (K)
Sequence (P53671 330-632): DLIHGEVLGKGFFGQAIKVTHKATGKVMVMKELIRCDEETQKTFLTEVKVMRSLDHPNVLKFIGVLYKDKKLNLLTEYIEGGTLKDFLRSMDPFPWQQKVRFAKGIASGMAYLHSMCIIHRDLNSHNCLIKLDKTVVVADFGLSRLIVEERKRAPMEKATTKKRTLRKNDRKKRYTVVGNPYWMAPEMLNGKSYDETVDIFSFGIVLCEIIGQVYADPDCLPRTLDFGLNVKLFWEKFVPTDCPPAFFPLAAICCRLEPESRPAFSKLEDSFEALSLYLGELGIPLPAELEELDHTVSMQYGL
Structures can show the parent of a compound that is named as a salt.
measurementKind: ΔTm at 10 µM (°C)

[[record]]
compound = "O=C(c1ccc(/C=C/c2n[nH]c3ccccc23)cc1)N1CCNCC1"
measurementkind = "ΔTm at 10 µM"
assayvalue = 0.8


[I] Cc1cc(Nc2ncc(Cl)c(Nc3ccccc3S(=O)(=O)C(C)C)n2)c(OC(C)C)cc1C1CCNCC1
[II] Cc1c(Cn2c(C)nc3c(C(=O)O)cc(N4CCOCC4)cc32)cccc1C(F)(F)F
[III] O=S(=O)(c1cccc2cnccc12)N1CCCNCC1 [Fasudil (HA-1077) HCl, Fasudil]
Rank by ΔTm at 10 µM (largest to smallest). Quick reminder: the answer is the labels in the order asked. II, III, I
(II: 2 °C, III: 0.9 °C, I: -0.3 °C)

====

target: LIMK1KD (Homo sapiens, UniProt P53667); construct: His6 (N, cleaved yes); made in house; host or cells: baculovirus; Sf9 for virus, TriEx insect cells for expression; test: Differential (dynamic) scanning fluorimetry (DSF) assay, LIMK1KD; format: binding; details: 2 µM LIMK1KD, compound 10 µM, single shot
Sequence (P53667 330-637): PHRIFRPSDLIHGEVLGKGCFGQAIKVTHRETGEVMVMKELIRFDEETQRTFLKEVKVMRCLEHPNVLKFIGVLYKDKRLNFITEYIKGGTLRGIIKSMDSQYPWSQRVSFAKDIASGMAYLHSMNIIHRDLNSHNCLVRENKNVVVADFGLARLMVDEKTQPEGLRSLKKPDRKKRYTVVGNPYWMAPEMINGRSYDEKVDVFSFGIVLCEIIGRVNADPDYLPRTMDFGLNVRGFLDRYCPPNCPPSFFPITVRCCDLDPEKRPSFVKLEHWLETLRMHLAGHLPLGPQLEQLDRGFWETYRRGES
measurementKind: TM Shift LIMK1 (K)

Known TM Shift LIMK1 (K) results, listed for orientation:
[[record]]
molecule = "COc1ccc2c(Oc3ccc(NC(=O)c4c(C)n(CC(C)(C)O)n(-c5ccccc5)c4=O)nc3)ccnc2c1"
testtarget = "LIMK1KD (Homo sapiens, UniProt P53667)"
unitabbreviation = "K"
assayvalue = 1.3

[[record]]
molecule = "CS(=O)(=O)O.Cn1cc(C2=C(c3cn(CCCSC(=N)N)c4ccccc34)C(=O)NC2=O)c2ccccc21 [Ro 31-8220 Mesylate]"
testtarget = "LIMK1KD (Homo sapiens, UniProt P53667)"
unitabbreviation = "K"
assayvalue = 1.6


[I] CCO.N#CC(=C(/N)Sc1ccccc1N)/C(C#N)=C(\N)Sc1ccccc1N
[II] O=C(NCc1ccccc1)c1csc(Nc2ccncn2)n1
[III] CCn1c(N)c(C(=O)NC)c(=O)c2ccc(C#C[C@@](C)(O)COC)nc21
[IV] Cc1ccc([N+](=O)[O-])cc1S(=O)(=O)N(C)/N=C/c1cnc2ccc(Br)cn12
Rank by TM Shift LIMK1 (K) (largest to smallest). Quick reminder: the answer is the labels in the order asked. IV, II, III, I

[A] Nc1ccc(-c2ccc3ncc4ccc(=O)n(-c5cccc(C(F)(F)F)c5)c4c3c2)cn1
[B] Cc1ccc(NC(=O)c2ccc(CN3CCN(C)CC3)cc2)cc1Nc1nccc(-c2cccnc2)n1 [Imatinib (STI571), Imatinib]
// pick larger TM Shift LIMK1 (K) from pair: A vs B # respond with the chosen item's label B

[A] CCc1cc(Nc2nccc(-c3c(-c4ccc(OC)c(C(=O)Nc5c(F)cccc5F)c4)nc4ccccn34)n2)c(OC)cc1N1CCC(N2CCN(S(C)(=O)=O)CC2)CC1 [GSK1904529A]
[B] CCc1cncnc1N1CCN(Cc2nc3ccc(C(F)(F)F)cc3[nH]2)CC1 [PF-4708671]
[C] N#CCNC(=O)c1ccc(-c2ccnc(Nc3ccc(N4CCOCC4)cc3)n2)cc1 [Momelotinib]
Rank by TM Shift LIMK1 (K) (largest to smallest). Quick reminder: the answer is the labels in the order asked. C, A, B

[I] CS(=O)(=O)c1cccc(CNc2nc(Nc3ccc4c(c3)CCC(=O)N4)ncc2C(F)(F)F)c1
[II] CCc1ccc(/C=C2/SC(=S)NC2=O)cc1
// pick larger TM Shift LIMK1 (K) from pair: I vs II # respond with the chosen item's label I
(I: 1.0 K, II: 0.3 K)
